Here, each record is paired with measured IC50 data.
Molecular target: UniProt Q9Y5Y9
Experiment: Activity against NaV 1.8 channel (Table 3), optical membrane potential / electrophysiology assays
Format: cell-based
Procedure: Compounds of the invention are useful as antagonists of voltage-gated sodium ion channels. Antagonist properties of test compounds were assessed as follows. Cells expressing the NaV of interest were placed into microtiter plates. […] The cells were stimulated with either a chemical or electrical means ti evoke a NaV dependent membrane potential change from unblocked channels, which was detected and measured with trans-membrane potential-sensitive dyes. […]

Sample answers from the record:
compound | assayed target | measurement label | observed
NS(=O)(=O)c1cccc(NC(=O)c2cccc(C(F)(F)F)c2)c1 | UniProt Q9Y5Y9 | IC50 | > 10 µM
CC(C)(C)c1ccc(C(=O)Nc2cccc(S(N)(=O)=O)c2)c(Oc2cc(C(F)(F)F)ncn2)c1 | UniProt Q9Y5Y9 | IC50 | > 10 µM
CC(C)(C)c1ccc(C(=O)Nc2cccc(S(N)(=O)=O)c2)c(Oc2cccc(C(F)(F)F)c2)c1 | UniProt Q9Y5Y9 | IC50 | < 2 µM
CC(C)(C)NS(=O)(=O)c1cccc(NC(=O)c2ccc(C(C)(C)C)cc2Br)c1 | UniProt Q9Y5Y9 | IC50 | 2 to 10 µM
CC(C)(C)c1ccc(C(=O)Nc2cccc(S(N)(=O)=O)c2)c(S(=O)(=O)c2ccccc2)c1 | UniProt Q9Y5Y9 | IC50 | 2 to 10 µM

Given the compound NS(=O)(=O)c1cccc(NC(=O)c2ccc(-c3ncns3)cc2)c1 , write its reported IC50. > 10 µM

Given the compound NS(=O)(=O)c1cccc(NC(=O)c2cccc(Br)c2)c1 , write its reported IC50. > 10 µM

Given the compound NS(=O)(=O)c1cccc(NC(=O)c2ccccc2Oc2ccccc2Cl)c1 , write its reported IC50. < 2 µM

Given the compound CN(C)S(=O)(=O)c1cccc(NC(=O)c2ccc(C(C)(C)C)cc2Oc2ccc(F)cc2Cl)c1 , write its reported IC50. < 2 µM

Given the compound CC(=O)c1ccccc1Oc1cc(C(C)(C)C)ccc1C(=O)Nc1cccc(S(N)(=O)=O)c1 , write its reported IC50. 2 to 10 µM

Given the compound NS(=O)(=O)c1cccc(NC(=O)c2cccc(N3CCNC3=O)c2)c1 , write its reported IC50. > 10 µM

Given the compound CCc1cc(C(=O)Nc2cccc(S(N)(=O)=O)c2)ccc1-c1ccccc1 , write its reported IC50. > 10 µM
